Entry source: patent US20110118131A1

Quick list: fold difference in affinity vs original per entry.
targetOfAssay: T1, IL-1β (UniProt P01584 117-269)
T1 construct: Antigen immobilised on the Biacore chip
assayOverview: Biacore, periplasmic extract
Write the number in fold without appending the unit.

{"binder": "XPA23 light chain Q27T (Fab, V domains shown) VH: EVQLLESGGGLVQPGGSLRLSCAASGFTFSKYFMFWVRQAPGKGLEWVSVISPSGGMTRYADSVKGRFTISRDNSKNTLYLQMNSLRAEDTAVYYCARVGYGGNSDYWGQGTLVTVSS VL: DIQMTQSPSSVSASVGDRLTIICRASTDINRWLAWYQQTPGNAPKLLIHSATSLQSGVPSRFSGSGSGTDFTLTINSLQPEDFATYYCQQADSFPLTFGGGTKVEIK", "fold difference in affinity vs original [fold]": 0.64}
{"binder": "XPA23 light chain T52S (Fab, V domains shown) VH: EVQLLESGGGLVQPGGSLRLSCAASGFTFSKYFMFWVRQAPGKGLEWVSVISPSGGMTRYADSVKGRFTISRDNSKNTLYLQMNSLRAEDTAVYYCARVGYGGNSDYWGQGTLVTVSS VL: DIQMTQSPSSVSASVGDRLTIICRASQDINRWLAWYQQTPGNAPKLLIHSASSLQSGVPSRFSGSGSGTDFTLTINSLQPEDFATYYCQQADSFPLTFGGGTKVEIK", "fold difference in affinity vs original [fold]": 0.78}
{"binder": "XPA23 light chain S50Q (Fab, V domains shown) VH: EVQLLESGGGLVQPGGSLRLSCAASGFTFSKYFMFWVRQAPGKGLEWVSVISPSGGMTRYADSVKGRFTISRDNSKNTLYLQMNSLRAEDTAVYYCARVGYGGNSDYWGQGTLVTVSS VL: DIQMTQSPSSVSASVGDRLTIICRASQDINRWLAWYQQTPGNAPKLLIHQATSLQSGVPSRFSGSGSGTDFTLTINSLQPEDFATYYCQQADSFPLTFGGGTKVEIK", "fold difference in affinity vs original [fold]": 0.21}

// query fold difference in affinity vs original value for entry XPA23 light chain D92E (Fab, V domains shown) VH: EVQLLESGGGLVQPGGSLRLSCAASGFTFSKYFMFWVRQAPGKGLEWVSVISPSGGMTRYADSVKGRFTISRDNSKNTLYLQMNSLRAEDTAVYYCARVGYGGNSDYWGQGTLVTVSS VL: DIQMTQSPSSVSASVGDRLTIICRASQDINRWLAWYQQTPGNAPKLLIHSATSLQSGVPSRFSGSGSGTDFTLTINSLQPEDFATYYCQQAESFPLTFGGGTKVEIK
0.99

// query fold difference in affinity vs original value for entry XPA23 light chain P95F (Fab, V domains shown) VH: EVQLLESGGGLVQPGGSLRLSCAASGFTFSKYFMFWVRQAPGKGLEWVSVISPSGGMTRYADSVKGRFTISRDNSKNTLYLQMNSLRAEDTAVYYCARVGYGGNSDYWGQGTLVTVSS VL: DIQMTQSPSSVSASVGDRLTIICRASQDINRWLAWYQQTPGNAPKLLIHSATSLQSGVPSRFSGSGSGTDFTLTINSLQPEDFATYYCQQADSFFLTFGGGTKVEIK
0.98
